Catalogue of compounds with associated IC50 at 48 h
run description: Cytotoxicity assay (CellTiter-Glo) in L5178Y cells
Format: cell-based
condition: mouse, 48 hours post drug incubation, cell viability by CellTiter-Glo, triplicate, read-out: Chromenone cytotoxicity IC50, L5178Y
Experimental: Jurkat and L5178Y cells were cultured in RPMI 1640 (ATCC), HL60 cells were cultured in Iscove's Modified Dulbecco's Medium (IMDM, ATCC), KB and MCF7 cells were cultured in Eagles Minimum Essential Medium (EMEM, ATCC), and SKOV3 cells in McCoy's 5a Medium (ATCC) supplemented with 10% Heat Inactivated Fetal Bovine Serum (FBS), and Penicillin and Streptomycin (P/S) at 37° C. in a 5% CO2 incubator. […]

[
  {
    "compound": "COC(=O)C(C)(C)c1cc(=O)c2c(O)ccc(-c3ccc(O)c4c(=O)cc(C(C)(C)C(=O)OC)oc34)c2o1 [Compound 28c]",
    "IC50 at 48 h": "23 µM"
  },
  {
    "compound": "COc1ccc(-c2ccc(OC)c3c(=O)c(C(C)=O)c(C)oc23)c2oc(C)c(C(C)=O)c(=O)c12",
    "IC50 at 48 h": "> 50 µM"
  },
  {
    "compound": "O=c1cc(C2CCCO2)oc2c(-c3ccc(O)c4c(=O)cc(C5CCCO5)oc34)ccc(O)c12 (stereo not drawn) [Compound 28e]",
    "IC50 at 48 h": "> 50 µM"
  }
]
